Give measured inhibition for each item. Keep answers brief.
- assay_system: Hexose transporter 1 (Plasmodium falciparum) (UniProt O97467)
- experiment_description: ST_JUDE_LEISH: Cytotoxicity at 2uM final concentration against transgenic Leishmania Mexicana promastigotes LmPfHT that are glucose transport deficient and complemented with the Plasmodium falciparum hexose transporter. Activity is measured by DNA content using SYBR green in vitro
- Assay type: functional
Expressed in %, but write only the number.

Query: Data request, read-out inhibition, for Cn1cnc(-c2ccc3c(c2)CCN(CCC2CCC(NC(=O)/C=C/c4ccc(F)cc4)CC2)CC3)c1 (stereo not given)
Response: 70.5

Query: // inhibition lookup, key: "Fc1ccc2[nH]c(-c3cccc(-c4ccc(CNCCN5CCNCC5)cc4)c3)nc2c1"
Response: -0.52

Query: Record request: inhibition value, item "Oc1ccc(CN2CCC(NCc3cccc4ccccc34)CC2)cc1"
Response: 11.6

Query: Can you share its inhibition? I mean this molecule: CCCc1ccc(S(=O)(=O)NC2CCN(c3ccnc(Nc4ccc(OC)cc4)n3)C2)cc1 (stereo not given)
Response: 9.89

Query: What value of inhibition has been recorded for this entry: "CN(C)CCC1CCN(CCS(=O)(=O)c2cccc(Nc3ncc(-c4cccc(F)c4)cn3)c2)CC1"
Response: 0.49

Query: Record request: inhibition value, item "Cc1nc(Nc2ccc(C)c(Cl)c2)c2c(C)noc2n1"
Response: 4.91

Query: If you can, please state the reported inhibition value of "Cc1nc2ccc3ccc(CNc4ccc(C#N)cc4)cc3c2c(=O)[nH]1" .
Response: 39.6

Query: Find the recorded inhibition belonging to Oc1ccc(Br)cc1C(O)CNCc1ccccc1OCc1ccccc1 (stereo not given) and report it.
Response: 3.54

Query: If you can, please state the reported inhibition value of "O=C(c1cccc(-c2noc(C(F)(F)F)n2)c1)N1CCN(c2nsc3ccccc23)CC1" .
Response: -1.92

Query: Reported inhibition for c1ccc2[nH]c(-c3ccc(-c4ccc(CNCC5CCCO5)cc4)s3)nc2c1 (stereo not given) : what is it?
Response: 4.61

Query: Fill in the blank: the reported inhibition of "Cc1ccc(NC(=O)c2c(C)noc2-c2snnc2C)cc1" is ____.
Response: 4.05

Query: Entry under review: "N=C(N)Nc1ccc(OCCCCCOc2ccc(NC(=N)N)c(Cl)c2)cc1Cl" . Reported inhibition?
Response: -1.31

Query: Value lookup for inhibition; key = "O=C(Nc1cc(C(F)(F)F)cc(C(F)(F)F)c1)Nc1cc(C(F)(F)F)cc(C(F)(F)F)c1"
Response: 4.29

Query: Look up inhibition: O=C(CN1C(=O)CC1S(=O)(=O)Cc1ccco1)NCCCCCCc1ccc(F)cc1 (stereo not given)
Response: 1.25

Query: Name the reported inhibition value associated with the molecule "O=C(Nc1nc(-c2cc(F)ccc2F)cs1)c1cncc(Br)c1"
Response: 1.79

Query: Item under review: "COc1cc(NC(=O)/C=C/c2ccccc2OC(F)(F)F)cc(OCCN2CCN(CCN3CCOCC3)CC2)c1" . Reported inhibition?
Response: 3.05

Query: Entry under review: "NCCCCNc1cc(-c2ccnc(Nc3cccc(Cl)c3)n2)ccn1" . Reported inhibition?
Response: 71.8

Query: Param item = "CC(=O)Nc1cccc(C(=O)Nc2cccc(-c3cccc(-c4nc5ccccc5[nH]4)c3)c2)c1" ; retrieve measured inhibition.
Response: 15.5

Query: So what does the record say about inhibition for "CC(=O)Nc1ncc(C(=O)Nc2cccc(-c3cccc(-c4nc5cc(C(F)(F)F)ccc5[nH]4)c3)c2)s1" ?
Response: 0.35

Query: I have this molecule here, "Oc1cccc(CCNCCCCCCNCCc2ccc(Cl)cc2)c1" , and I need its recorded inhibition.
Response: 2.44

----------
Provide the recorded inhibition for the entries that follow.
- assay_system: Solute carrier family 2, facilitated glucose transporter member 1 (Homo sapiens)
- experiment_description: ST_JUDE_LEISH: Cytotoxicity at 2uM final concentration against transgenic Leishmania Mexicana promastigotes LmGLUT1 that are glucose transport deficient and complemented with the human glucose transporter GLUT1. Activity is measured by DNA content using SYBR green in vitro
- Assay type: functional
Quick reminder: number only, in %, skip the unit.

Query: Endpoint output: inhibition of "CC(C)NCc1cccc(-c2ccc(NC(=O)c3ccc(C#N)cc3)cc2)c1" . Value?
Response: 14.9

Query: For "CC(=O)Nc1nc(C(=O)Nc2ccc(-c3cccc(-c4nc5ccccc5[nH]4)c3)cc2)cs1" , what is its reported inhibition?
Response: 1.93

Query: Reported inhibition, compound "Cc1cc(Cl)c(S(=O)(=O)N(C)c2ccccc2)cc1OCC(=O)NC1CCCCC1" : ____
Response: 1.65

Query: Any idea what its inhibition is? The compound is "CCCCCCCN1CC[C@@H](CCCc2ccnc3ccc(OC)cc23)[C@@H](CCN)C1"
Response: 3.03

Query: State the recorded inhibition for this entry: "O=c1nc(C=Cc2ccc(Br)cc2)oc2ccccc12"
Response: 3.24

----------
Would you kindly list inhibition for each of these compounds?
- assay_system: Solute carrier family 2, facilitated glucose transporter member 1 (Homo sapiens) (UniProt P11166)
- Sequence (P11166 whole entry): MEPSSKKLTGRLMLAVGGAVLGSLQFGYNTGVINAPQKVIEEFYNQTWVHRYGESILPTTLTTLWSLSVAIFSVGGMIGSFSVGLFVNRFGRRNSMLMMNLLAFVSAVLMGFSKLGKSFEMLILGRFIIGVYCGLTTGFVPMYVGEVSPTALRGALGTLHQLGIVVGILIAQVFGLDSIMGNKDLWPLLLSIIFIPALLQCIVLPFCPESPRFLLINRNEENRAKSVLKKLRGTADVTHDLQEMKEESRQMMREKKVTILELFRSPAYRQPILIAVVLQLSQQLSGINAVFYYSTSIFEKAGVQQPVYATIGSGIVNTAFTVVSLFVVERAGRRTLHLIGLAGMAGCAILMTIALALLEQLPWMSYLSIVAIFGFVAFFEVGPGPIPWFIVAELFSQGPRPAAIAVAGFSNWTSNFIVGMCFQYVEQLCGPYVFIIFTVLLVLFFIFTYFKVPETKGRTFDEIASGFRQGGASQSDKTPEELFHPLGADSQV
- experiment_description: ST_JUDE_LEISH: Cytotoxicity at 2uM final concentration against transgenic Leishmania Mexicana promastigotes LmGLUT1 that are glucose transport deficient and complemented with the human glucose transporter GLUT1. Activity is measured by DNA content using SYBR green in vitro
- Assay type: functional
Could you give me the number in %? Just the number is fine.

Query: Quick check: inhibition of "c1ccc(-c2cc(NCCNc3cc(-c4ccccc4)nc4ccccc34)c3ccccc3n2)cc1" ?
Response: -1.99

Query: Field request: inhibition | item: "CCCCCCN1CCCN(Cc2ccc(C(=O)Nc3ccc(CCC)cc3)cc2)CC1"
Response: 9.31

Query: Which inhibition is reported for this compound? "O=C(Nc1cccc(CN2CCN(C(=O)c3cccc(F)c3)CC2)c1)c1cccs1"
Response: 0.66

Query: Return reported inhibition; argument: "CC[C@H]1CN(Cc2ccco2)CC[C@H]1CCCc1ccnc2ccc(O)cc12"
Response: 4.7

Query: inhibition; subject: "Clc1cnc2ccc3c(c2c1CCN1CCC(NCc2cc4c(cn2)OCCO4)CC1)OCCO3"
Response: 27.3

Query: Entry "O=c1cc(NCCCNCc2cc(F)cc(C(F)(F)F)c2)[nH]c2ccccc12" : reported inhibition = ?
Response: -0.27

Query: inhibition lookup needed for "CC(C)(CNC(=O)/C=C/c1ccc(C(F)(F)F)cc1)CNc1cc(=O)c2ccccc2[nH]1" , thanks.
Response: 1.07

Query: State the recorded inhibition for this entry: "CCN(CCCN1CCCCC1)c1cc(C)nc(Nc2ccc(C)cc2)n1"
Response: 0

Query: What value of inhibition has been recorded for this entry: "Oc1ccc(CCNCCCCCCNCCCc2ccc(Cl)cc2)cc1O"
Response: 2.83

Query: Query (compound): "COc1ccc(Nc2ncc3c(-c4cccc(NC(=O)Cc5ccc(O)cc5)c4)c[nH]c3n2)cc1OC" ; field requested: inhibition
Response: 9.41

Query: So what does the record say about inhibition for O=C(Nc1ccc(C(=O)OCC(c2ccccc2)c2ccccc2)cc1)N[C@@H](Cc1ccc(O)cc1)C(=O)NC1CCN(Cc2ccc(O)cc2)C1 (some centres undefined) ?
Response: -0.47

Query: Would you kindly share the measured inhibition for "O=C(N/C(=C/c1cccc([N+](=O)[O-])c1)c1nc2ccccc2[nH]1)c1cccc(Br)c1" ?
Response: 2.64

Query: I'd like to know its inhibition. The compound in question is "O=C(NCCCN1CCCCC1)c1ccc(Nc2nccc(Nc3ccc(Oc4ccccc4)cc3)n2)cc1"
Response: 10.4

Query: Give the measured inhibition of CC(C)(C)c1ccc(CN2CCC(NC(=O)c3cc(-c4cccc(C(F)(F)F)c4)cs3)C2)cc1 (centres undefined) .
Response: 0.92

Query: Fill blank: measured inhibition of the compound "O=C(Nc1ccccc1)N1CCC(CN2CCOC(c3ccccc3)(c3ccccc3)C2)CC1" is ____.
Response: 7.91

Query: // returns reported inhibition for input CC(C)(C)c1ccc(C(=O)N2CCC3(CC2)C(=O)N(CC(=O)NCC2CCCO2)CN3c2ccccc2)cc1 (centres undefined)
Response: 0.44

Query: I would be grateful if you could share the reported inhibition for "Cc1nc2c(Nc3nc(-c4ccncc4)cs3)ncnc2n1-c1ccccc1Cl" .
Response: 45.1

Query: Fill in: inhibition of "CC(C)(CNC(=O)[C@@H]1CCCN(Cc2ccc(Cl)cc2)C1)c1nc(-c2ccc(Cl)c(O)c2)c(-c2ccncc2)[nH]1" is ___
Response: -1.45

Query: I'd like to know its inhibition. The compound in question is Cc1ccccc1C1CCN(C2CCC(NC(=O)/C=C/c3ccccc3C(F)(F)F)CC2)CC1 (centres undefined)
Response: 3.47
